- measured_on: UniProt:Q9Y4K0
- Sequence (Q9Y4K0 26-774): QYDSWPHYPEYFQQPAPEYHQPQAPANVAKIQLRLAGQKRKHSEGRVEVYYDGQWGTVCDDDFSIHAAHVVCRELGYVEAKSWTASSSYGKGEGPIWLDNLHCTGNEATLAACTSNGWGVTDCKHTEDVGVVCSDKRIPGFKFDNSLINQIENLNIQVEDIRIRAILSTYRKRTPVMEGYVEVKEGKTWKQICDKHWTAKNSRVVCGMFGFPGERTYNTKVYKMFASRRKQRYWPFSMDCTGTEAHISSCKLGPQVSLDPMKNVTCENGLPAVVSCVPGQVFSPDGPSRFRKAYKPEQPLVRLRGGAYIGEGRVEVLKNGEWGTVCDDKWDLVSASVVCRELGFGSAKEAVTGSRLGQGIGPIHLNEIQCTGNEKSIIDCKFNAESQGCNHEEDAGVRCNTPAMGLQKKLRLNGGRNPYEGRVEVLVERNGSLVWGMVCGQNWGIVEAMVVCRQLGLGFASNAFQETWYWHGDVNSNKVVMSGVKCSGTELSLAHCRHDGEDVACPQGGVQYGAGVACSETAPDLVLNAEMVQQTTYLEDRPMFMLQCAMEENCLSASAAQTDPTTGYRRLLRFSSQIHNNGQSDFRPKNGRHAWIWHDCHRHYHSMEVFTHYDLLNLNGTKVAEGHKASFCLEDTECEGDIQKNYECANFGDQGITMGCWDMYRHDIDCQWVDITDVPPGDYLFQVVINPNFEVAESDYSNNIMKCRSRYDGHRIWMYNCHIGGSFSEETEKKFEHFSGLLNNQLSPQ
- assay_info: LOXL2 inhibition, Amplex Red oxidation assay
- Assay type: biochemical
- condition_notes: 2 h incubation with enzyme at 37 °C; read-out: Human LOXL2 Activity IC50
pIC50: −log10 of the molar value.
property_label: pIC50

- smiles_text: "N#Cc1ccccc1S(=O)(=O)C/C(=C/F)CN"
  reported: "> 5.30"
- smiles_text: "N#Cc1cccc(S(=O)(=O)C/C(=C/F)CN)c1"
  reported: "> 5.70"
- smiles_text: "[2H]c1c([2H])c([2H])c(S(=O)(=O)C/C(=C/F)CN)c([2H])c1[2H]"
  reported: "> 5.30"
- smiles_text: "NC/C(=C\\F)CS(=O)(=O)c1ccc2ccccc2c1"
  reported: "> 5.70"
- smiles_text: "Cc1ncc(-c2cccc(S(=O)(=O)C/C(=C/F)CN)c2)s1"
  reported: "> 5.70"

Moving on to another compound below.
For the compound NC/C(=C\F)CS(=O)(=O)c1cccc(Cl)c1 , what pIC50 is on record?
> 5.70
